Source of measurements: patent US12391697B2

// IC50 lookup, one value per entry
Target: BTK (Homo sapiens (Human), UniProt Q06187)
Sequence (Q06187 whole entry): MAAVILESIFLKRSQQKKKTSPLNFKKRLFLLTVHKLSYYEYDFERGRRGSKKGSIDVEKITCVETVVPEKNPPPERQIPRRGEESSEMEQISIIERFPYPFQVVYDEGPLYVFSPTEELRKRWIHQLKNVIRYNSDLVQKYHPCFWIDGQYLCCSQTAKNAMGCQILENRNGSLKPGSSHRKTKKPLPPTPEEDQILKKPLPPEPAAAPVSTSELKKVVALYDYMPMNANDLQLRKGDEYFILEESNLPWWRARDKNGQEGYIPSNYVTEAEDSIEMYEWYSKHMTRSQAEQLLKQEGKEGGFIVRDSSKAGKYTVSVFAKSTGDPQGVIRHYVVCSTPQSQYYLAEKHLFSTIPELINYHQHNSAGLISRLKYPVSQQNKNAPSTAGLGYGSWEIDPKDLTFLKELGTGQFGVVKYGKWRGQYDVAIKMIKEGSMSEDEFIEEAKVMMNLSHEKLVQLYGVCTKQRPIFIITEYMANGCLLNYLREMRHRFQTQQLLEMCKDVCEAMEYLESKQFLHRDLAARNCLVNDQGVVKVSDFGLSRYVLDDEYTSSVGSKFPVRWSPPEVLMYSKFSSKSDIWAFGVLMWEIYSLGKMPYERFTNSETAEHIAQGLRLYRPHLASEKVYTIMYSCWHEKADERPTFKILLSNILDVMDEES
Structures can show the parent of a compound that is named as a salt.
readout-name: IC50

[[record]]
molecule = "Cc1cc(-c2ncnn3cc(-c4cnn(C)c4)cc23)ccc1CNC(=O)c1ccn(C(C)(C)C)n1"
result = "≤ 1 nM"

[[record]]
molecule = "Cc1cc(-c2ncnn3cccc23)ccc1CNC(=O)c1cn(C(C)(C)C)nn1"
result = "> 10 nM"

[[record]]
molecule = "COc1c(CNC(=O)c2nnc(C(C)(C)C)o2)ccc(-c2ncnn3cc(-c4cnn(C)c4)cc23)c1F"
result = "1 to 10 nM"

[[record]]
molecule = "Cc1cc(-c2ncnn3cc(N4CCOCC4)cc23)ccc1CNC(=O)c1noc(C(C)(C)C)n1 [Example 5, trifluoroacetate]"
result = "≤ 1 nM"

[[record]]
molecule = "Cc1cc(-c2ncnn3cc(N4CCOC(C(C)C)C4)cc23)ccc1CNC(=O)c1nc(C(C)(C)C)no1 (centres unmarked)"
result = "1 to 10 nM"

[[record]]
molecule = "Cc1cc(-c2ncnn3cc(C4=CCOCC4)cc23)ccc1CNC(=O)c1cnc(C(C)(C)C)o1 (single isomer, unassigned)"
result = "≤ 1 nM"

[[record]]
molecule = "CC(C)(C)n1cc(C(=O)NCc2ccc(-c3ncnn4cc(N5CCOCC5)cc34)c(F)c2Cl)nn1"
result = "≤ 1 nM"

[[record]]
molecule = "Cc1cc(-c2ncnn3ccc(C)c23)ccc1CNC(=O)c1noc(C(C)(C)C)n1"
result = "1 to 10 nM"

[[record]]
molecule = "COC1CN(C(=O)c2cc3c(-c4ccc(CNC(=O)c5noc(C(C)(C)C)n5)c(C)c4)ncnn3c2)C1"
result = "≤ 1 nM"

[[record]]
molecule = "CC(C)(C)c1nc(C(=O)NCc2cc(F)c(-c3ncnn4cccc34)cc2Cl)no1"
result = "1 to 10 nM"

[[record]]
molecule = "Cc1cc(-c2ncnn3cc(N4C[C@@H](C)O[C@H](C)C4)cc23)ccc1CNC(=O)c1noc(C(C)(C)C)n1 (single isomer, unassigned)"
result = "≤ 1 nM"

[[record]]
molecule = "Cn1cc(-c2cc3c(-c4ccc(CNC(=O)c5nc(C(C)(C)C)no5)c(C(F)F)c4F)ncnn3c2)cn1"
result = "≤ 1 nM"

[[record]]
molecule = "COc1c(CNC(=O)c2noc(C(C)(C)C)n2)ccc(-c2ncnn3cccc23)c1F"
result = "1 to 10 nM"

[[record]]
molecule = "Cc1cc(-c2ncnn3cc(-c4cnn(C)c4)cc23)ccc1CNC(=O)c1nnc(C(C)(C)C)o1"
result = "≤ 1 nM"

[[record]]
molecule = "Cc1c(CNC(=O)c2noc(C(C)(C)C)n2)ccc(-c2ncnn3cc(N4CCOCC4)cc23)c1F"
result = "≤ 1 nM"

[[record]]
molecule = "Cc1c(CNC(=O)c2ccn(C(C)(C)C)n2)ccc(-c2ncnn3cc(N4CCOCC4)cc23)c1F"
result = "1 to 10 nM"

[[record]]
molecule = "CC(C)(C)c1nc(C(=O)NCc2ccc(-c3ncnn4cccc34)cc2C(F)F)no1"
result = "1 to 10 nM"

[[record]]
molecule = "Cc1cc(-c2ncnn3cc(C4CCN(C)C4)cc23)ccc1CNC(=O)c1noc(C(C)(C)C)n1 (centres unmarked)"
result = "1 to 10 nM"

[[record]]
molecule = "C[C@@H](NC(=O)c1nnc(C(C)(C)C)o1)c1ccc(-c2ncnn3cc(N4CCOCC4)cc23)cc1Cl"
result = "1 to 10 nM"

[[record]]
molecule = "Cn1cc(-c2cc3c(-c4ccc(CNC(=O)c5noc(C(C)(C)C)n5)c(C(F)F)c4F)ncnn3c2)cn1 [Example 36, hydrochloride]"
result = "≤ 1 nM"

